Hello, the source for this data is PubChem BioAssay AID1117358, in case you need it.

- Experiment: viability loss in Vero cells – cytotoxicity control for Vif-APOBEC3G degradation inhibitor project, dose response (AID 1117358)
- Condition Notes: CellTiter-Glo ATP luminescence, 72 h; series mostly up to 40 µM
The whole screen tested about 2,300 compounds, of which about 160 (7%) were called active. The list is a sample of the results. Measured potencies and affinities stand elsewhere.
Measured Endpoint: outcome

C/C(=C1\SC(N2CCOCC2)=NC1=O)c1ccccc1: inactive
CCC(c1nnnn1C(C)(C)CC)N(CCCO)Cc1cc2cc(C)cc(C)c2[nH]c1=O (stereo unspecified): inactive
CCOC(=O)c1ccc(NS(=O)(=O)c2ccc3c(c2)oc(=O)n3C)cc1: inactive
CSc1cccc(NC(=O)CN(c2cc(C)ccc2C)S(C)(=O)=O)c1: inactive
COc1ccc(C(=O)NCc2cccnc2)cc1OC: inactive

Please look up its outcome: "CCc1cccc(NC(=O)Cn2ncn3c(cc4ccccc43)c2=O)c1"
inactive
